- assay_comment: activity coefficient (dimensionless); of the first substance listed, at infinite dilution; xn = mol fraction of the nth substance listed
- conditions: 358.15 K; 101 kPa; Liquid; Chromatography; x1 = 0
outcome_measure: activity coefficient

compound	activity coefficient
CCC(=O)OC [methyl propanoate] + COCC[N+]1(C)CCCCC1.O=S(=O)([N-]S(=O)(=O)C(F)(F)F)C(F)(F)F	0.95
CCOC(C)(C)C [2-ethoxy-2-methylpropane] + COCC[N+]1(C)CCCCC1.O=S(=O)([N-]S(=O)(=O)C(F)(F)F)C(F)(F)F	5.44

Can you share its activity coefficient? I mean this compound: CC(C)CO [2-methyl-1-propanol] + COCC[N+]1(C)CCCCC1.O=S(=O)([N-]S(=O)(=O)C(F)(F)F)C(F)(F)F 1.75

* * *

Below, each entry is listed with its recorded activity coefficient.
- assay_comment: activity coefficient (dimensionless); of the first substance listed, at infinite dilution; xn = mol fraction of the nth substance listed
- conditions: 328.15 K; 101 kPa; Liquid; Chromatography; x1 = 0
A bare number is all that is needed in reply.

Check out these entries, answers already filled in.
compound	activity coefficient
CC(C)CC(C)(C)C [2,2,4-trimethylpentane] + COCC[N+]1(C)CCCCC1.O=S(=O)([N-]S(=O)(=O)C(F)(F)F)C(F)(F)F	22.3
C1CCCCC1 [cyclohexane] + COCC[N+]1(C)CCCCC1.O=S(=O)([N-]S(=O)(=O)C(F)(F)F)C(F)(F)F	9.23
C1CCCC1 [cyclopentane] + COCC[N+]1(C)CCCCC1.O=S(=O)([N-]S(=O)(=O)C(F)(F)F)C(F)(F)F	6.42

Consider now this further compound.
Can you share its activity coefficient? I mean this compound: CC(C)OC(C)C [diisopropyl ether] + COCC[N+]1(C)CCCCC1.O=S(=O)([N-]S(=O)(=O)C(F)(F)F)C(F)(F)F 6.03

* * *

- assay_comment: activity coefficient (dimensionless); of the first substance listed, at infinite dilution; xn = mol fraction of the nth substance listed
- conditions: 318.15 K; 101 kPa; Liquid; Chromatography; x1 = 0
outcome_measure: activity coefficient
A bare number is all that is needed in reply.

Check out these entries, answers already filled in.
compound	activity coefficient
C#CCCCCCC [1-octyne] + COCC[N+]1(C)CCCCC1.O=S(=O)([N-]S(=O)(=O)C(F)(F)F)C(F)(F)F	6.02
CCC(C)CC [3-methylpentane] + COCC[N+]1(C)CCCCC1.O=S(=O)([N-]S(=O)(=O)C(F)(F)F)C(F)(F)F	14.7
CCCO [propan-1-ol] + COCC[N+]1(C)CCCCC1.O=S(=O)([N-]S(=O)(=O)C(F)(F)F)C(F)(F)F	2.13

Consider now this further compound.
Can you share its activity coefficient? I mean this compound: C=CCCCCCCCC [1-decene] + COCC[N+]1(C)CCCCC1.O=S(=O)([N-]S(=O)(=O)C(F)(F)F)C(F)(F)F 36.2

* * *

- assay_comment: activity coefficient (dimensionless); of the first substance listed, at infinite dilution; xn = mol fraction of the nth substance listed
- conditions: 358.15 K; 101 kPa; Liquid; Chromatography; x1 = 0
outcome_measure: activity coefficient
A bare number is all that is needed in reply.

molecule	outcome_measure	value_reported
CCC(=O)CC [pentan-3-one] + COCC[N+]1(C)CCCCC1.O=S(=O)([N-]S(=O)(=O)C(F)(F)F)C(F)(F)F	activity coefficient	0.852

Can you share its activity coefficient? I mean this molecule: Cc1cccc(C)c1 [1,3-dimethylbenzene] + COCC[N+]1(C)CCCCC1.O=S(=O)([N-]S(=O)(=O)C(F)(F)F)C(F)(F)F 1.85

Can you share its activity coefficient? I mean this molecule: CCCC(C)=O [pentan-2-one] + COCC[N+]1(C)CCCCC1.O=S(=O)([N-]S(=O)(=O)C(F)(F)F)C(F)(F)F 0.837

Can you share its activity coefficient? I mean this molecule: CCC(C)(C)C [2,2-dimethylbutane] + COCC[N+]1(C)CCCCC1.O=S(=O)([N-]S(=O)(=O)C(F)(F)F)C(F)(F)F 11.3
